Reported MIC values are given for each entry in this list.
Tested on: Trichomonas vaginalis
assay-text: Antitrichomonas activity against trophozoite stage of Trichomonas vaginalis clinical isolate assessed as cell viability under anaerobic condition after 48 hrs by trypan blue exclusion assay
Assay type: functional

CCCCCCSC(=S)N1CCN(C(=S)SSC(=S)N2CCN(C(=S)SCCCCCC)CC2)CC1	> 155 µM

Q) // lookup MIC for `CS(=O)(=O)N1CCN(C(=S)SSC(=S)N2CCN(S(C)(=O)=O)CC2)CC1`
A) > 208 µM

Q) // lookup MIC for `O=C(c1ccccc1)N1CCN(C(=S)SSC(=S)N2CCN(C(=O)c3ccccc3)CC2)CC1`
A) > 188 µM

Q) // lookup MIC for `Fc1ccc(N2CCN(C(=S)SSC(=S)N3CCN(c4ccc(F)cc4)CC3)CC2)cc1`
A) > 195 µM

Q) // lookup MIC for `O=[N+]([O-])c1ccc(N2CCN(C(=S)SSC(=S)N3CCN(c4ccc([N+](=O)[O-])cc4C(F)(F)F)CC3)CC2)c(C(F)(F)F)c1`
A) > 142 µM

Q) // lookup MIC for `COc1ccccc1N1CCN(C(=S)SSC(=S)N2CCN(c3ccccc3OC)CC2)CC1`
A) > 186 µM

Q) // lookup MIC for `CCCCCCCCCCCCCCCCN1CCN(C(=S)SSC(=S)N2CCN(CCCCCCCCCCCCCCCC)CC2)CC1`
A) > 129 µM

Q) // lookup MIC for `S=C(SSC(=S)N1CCN(C23CC4CC(CC(C4)C2)C3)CC1)N1CCN(C23CC4CC(CC(C4)C2)C3)CC1`
A) > 169 µM

Q) // lookup MIC for `S=C(SCCN1CCCCC1)N1CCN(C(=S)SSC(=S)N2CCN(C(=S)SCCN3CCCCC3)CC2)CC1`
A) > 143 µM

Q) // lookup MIC for `CCCCSC(=S)N1CCN(C(=S)SSC(=S)N2CCN(C(=S)SCCCC)CC2)CC1`
A) > 170 µM
